# maps each entry to its kon
- System name: T1, Recombinant human Dkk-1 (R&D Systems cat no. 1096-DK/CF), 10xHis tag at the C terminal (human, UniProt O94907 32-266)
- T1 construct: the actual N-terminus of the purified protein is marked in bold italic after residue 30, but the mark is an image lost in the text; also called rhuDkk-1; hDkk-1
- T1 sequence: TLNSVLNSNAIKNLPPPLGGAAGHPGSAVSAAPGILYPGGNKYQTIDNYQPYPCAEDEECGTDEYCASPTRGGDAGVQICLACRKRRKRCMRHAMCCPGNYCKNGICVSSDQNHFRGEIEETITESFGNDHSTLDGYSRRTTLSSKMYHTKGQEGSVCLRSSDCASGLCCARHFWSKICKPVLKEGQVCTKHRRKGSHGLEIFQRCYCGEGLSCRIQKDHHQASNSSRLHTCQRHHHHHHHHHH
- Method notes: SPR 37C (BIAcore/ProteOn), hDkk-1 series over captured IgG (taken so as kon is printed)
Please state the figure in M⁻¹ s⁻¹; there is no need to write the unit.

# example entries with known answers
# Binder, Result
records = [
    ("36H.33L (antibody, V domains shown) VH: EVQLVESGGGLVQPGGSLRLSCAASGFTFSSYAISWVRQAPGKGLEWVASVSGWFDTYYPDSVKGRFTISRDNAKNSLYLQMNSLRAEDTAVYYCATSLRNYAFDYWGQGTTVTVSS VL: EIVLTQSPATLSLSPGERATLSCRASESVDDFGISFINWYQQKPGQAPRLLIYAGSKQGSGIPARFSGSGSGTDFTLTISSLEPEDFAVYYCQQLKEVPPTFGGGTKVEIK", "5.18e+06"),
    ("2E11.33L (antibody, V domains shown) VH: EVQLVESGGGLVQPGGSLRLSCAASGFTFSSYAISWVRQAPGKGLEWVASVSGTGLGFQTYYPDSVKGRFTISRDNAKNSLYLQMNSLRAEDTAVYYCATSLRNYAFDYWGQGTTVTVSS VL: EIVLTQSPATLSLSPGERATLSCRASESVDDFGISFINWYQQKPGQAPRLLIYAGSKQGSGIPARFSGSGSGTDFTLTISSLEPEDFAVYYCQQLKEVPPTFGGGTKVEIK", "2.88e+06"),
    ("4E8.33L (antibody, V domains shown) VH: EVQLVESGGGLVQPGGSLRLSCAASGFTFSSYAISWVRQAPGKGLEWVASVSGWLDTYYPDSVKGRFTISRDNAKNSLYLQMNSLRAEDTAVYYCATSLENYAFDYWGQGTTVTVSS VL: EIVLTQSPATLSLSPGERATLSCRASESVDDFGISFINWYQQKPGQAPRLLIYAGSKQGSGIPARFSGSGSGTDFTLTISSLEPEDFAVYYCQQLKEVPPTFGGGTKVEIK", "1.13e+07"),
]

# input for lookup
Entry 4F10.33L (antibody, V domains shown) VH: EVQLVESGGGLVQPGGSLRLSCAASGFTFSSYAISWVRQAPGKGLEWVASVSGTGLGFQTYYPDSVKGRFTISRDNAKNSLYLQMNSLRAEDTAVYYCATSLKNYAFDYWGQGTTVTVSS VL: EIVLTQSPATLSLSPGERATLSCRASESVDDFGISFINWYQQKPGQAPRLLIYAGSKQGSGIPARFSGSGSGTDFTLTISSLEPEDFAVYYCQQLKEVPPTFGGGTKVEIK , kon reported as 2.31e+06
